Assignment: determine reported solubility kinetic for the given compounds.
- reported-conditions: buffer; pH 7.4; 200.0 µM

Exercise: Report solubility kinetic for Cc1c(C=C2C(=O)NC(=O)NC2=O)c(=O)n(-c2ccccc2)n1C please.
Key: > 0.0489 mg/mL

Exercise: Report solubility kinetic for COc1ccc(C2(C(=O)Nc3ccc(C)cc3)CCOCC2)cc1 please.
Key: > 0.0488 mg/mL

Exercise: Report solubility kinetic for COc1cc(C(=O)Nc2ccc(C)cc2)c2ccccc2n1 please.
Key: < 0.0003 mg/mL

Exercise: Report solubility kinetic for Cc1cccc(N2CCN(C(=O)c3ccnn3C)CC2)c1C please.
Key: > 0.0448 mg/mL

Exercise: Report solubility kinetic for O=C(O)c1ccc(NCc2cccs2)cc1 please.
Key: > 0.035 mg/mL

Exercise: Report solubility kinetic for CC(CN1CCN(C)CC1)OC(=O)c1ccc(F)cc1.Cl (configuration not stated) please.
Key: > 0.0475 mg/mL

Exercise: Report solubility kinetic for Cn1c(O)c(/C=N/N2CCOCC2)c(=O)n(-c2ccccc2)c1=S please.
Key: > 0.052 mg/mL

Exercise: Report solubility kinetic for Cc1cccn2c(=O)c(/C=N/O)c(NCc3ccccc3)nc12 please.
Key: < 0.0002 mg/mL

Exercise: Report solubility kinetic for O=C(c1ccc(F)cc1F)C1CCN(c2ccc([N+](=O)[O-])cn2)CC1 please.
Key: 0.0014 mg/mL

Exercise: Report solubility kinetic for Cc1ccc(C(=O)N2CCCC(Nc3ccc(F)c(F)c3)C2)cn1 (configuration not stated) please.
Key: > 0.0497 mg/mL

Exercise: Report solubility kinetic for O=C(NCc1ccc(Cl)cc1)N1CCN(Cc2ccccc2)CC1 please.
Key: > 0.0516 mg/mL

Exercise: Report solubility kinetic for Cc1ccc(C(=O)NCC(=O)Nc2ccc(S(=O)(=O)Nc3cc(C)nc(C)n3)cc2)cc1 please.
Key: > 0.068 mg/mL

Exercise: Report solubility kinetic for CC(=O)c1ccccc1NS(=O)(=O)c1cccc2nsnc12 please.
Key: 0.0015 mg/mL

Exercise: Report solubility kinetic for O=[N+]([O-])c1ccc(Cc2ccccn2)c([N+](=O)[O-])c1 please.
Key: 0.0336 mg/mL

Exercise: Report solubility kinetic for CN(Cc1nc(-c2ccc(Cl)cc2)no1)C(=O)c1ccco1 please.
Key: 0.0475 mg/mL

Exercise: Report solubility kinetic for COCCN1CCn2c(nc3cc(NS(C)(=O)=O)ccc32)C1 please.
Key: > 0.0487 mg/mL

Exercise: Report solubility kinetic for Cc1cc(NC(=O)c2cccs2)ncc1NC(=O)C(C)(C)C please.
Key: 0.0386 mg/mL

Exercise: Report solubility kinetic for S=C(NCc1ccco1)NCc1ccccc1Cl please.
Key: > 0.0421 mg/mL

Exercise: Report solubility kinetic for O=C(/C=C/c1ccccc1)NCCCNC(=O)/C=C/c1ccccc1 please.
Key: 0.005 mg/mL

Exercise: Report solubility kinetic for O=C(NN1CCOCC1)c1ccc(Br)s1 please.
Key: > 0.0437 mg/mL

Exercise: Report solubility kinetic for CC(C)n1cnc2c(oc3ccccc32)c1=O please.
Key: 0.007 mg/mL

Exercise: Report solubility kinetic for CCOC(=O)c1[nH]c(C)c(C(=O)/C=C/c2ccc(C(=O)O)cc2)c1C please.
Key: > 0.0512 mg/mL

Exercise: Report solubility kinetic for COc1cccc(NC(=O)C(c2ccccc2)N2CCCC2)c1 (configuration not stated) please.
Key: > 0.0466 mg/mL

Exercise: Report solubility kinetic for CC#CC[N+](C)(C)CC(=O)c1ccccc1.[Br-] please.
Key: > 0.0444 mg/mL

Exercise: Report solubility kinetic for CC1=Nc2ccc(C)cc2/C1=C/c1c(N)n2oc(C)cc2nc1=O please.
Key: 0.0006 mg/mL

Exercise: Report solubility kinetic for O=C(Nc1ccccc1)c1cc([N+](=O)[O-])ccc1Cl please.
Key: 0.0031 mg/mL

Exercise: Report solubility kinetic for Cc1noc(C)c1COC(=O)[C@@H](NC(=O)c1ccccc1)C(C)C please.
Key: > 0.0496 mg/mL

Exercise: Report solubility kinetic for COC(=O)c1sc(NC(=O)c2c(F)cccc2F)c(C#N)c1C please.
Key: 0.0072 mg/mL

Exercise: Report solubility kinetic for CCc1cc(=O)oc2cc(C)cc(OCC(=O)NC3CC3)c12 please.
Key: 0.025 mg/mL

Exercise: Report solubility kinetic for O=C(c1ccc([N+](=O)[O-])cc1)N1CCN(c2cccc3[nH]ccc23)CC1 please.
Key: 0.0507 mg/mL

Exercise: Report solubility kinetic for O=C(Nc1ccccc1Br)c1ccc2nccnc2c1 please.
Key: > 0.0492 mg/mL

Exercise: Report solubility kinetic for C=CCOc1ccc(CN(C)C(=O)C2CCCO2)cc1 (configuration not stated) please.
Key: > 0.0413 mg/mL

Exercise: Report solubility kinetic for O=C(OCC(=O)N1CCCC1)c1cc([N+](=O)[O-])ccc1Cl please.
Key: > 0.0469 mg/mL

Exercise: Report solubility kinetic for COc1ccc(C(=O)NCC(=O)OCC(=O)NCc2cccs2)cc1 please.
Key: > 0.0544 mg/mL

Exercise: Report solubility kinetic for OCCC1CN(Cc2cccnc2)CCN1CCc1ccccc1 (configuration not stated) please.
Key: 0.0424 mg/mL

Exercise: Report solubility kinetic for COc1ccc(C=NNC(=O)c2cc(C)oc2C)cc1O please.
Key: > 0.0432 mg/mL

Exercise: Report solubility kinetic for O=C(CCCCC(=O)Nc1c(I)cc(I)c(C(=O)O)c1I)Nc1c(I)cc(I)c(C(=O)O)c1I please.
Key: > 0.171 mg/mL

These entries and their values trace back to PubChem BioAssay AID1996.
